biological target: TRβ-LBD/RXRα (Homo sapiens, UniProt P10828); construct: TRβ-LBD (Invitrogen, PV4764) with a GST tag were used; purchased Invitrogen (TRβ-LBD); Pharmaron (RXRα) PV4764; experiment: In vitro binding experiment (TR-FRET SRC2-2 co-activator peptide recruitment), TRβ; type: biochemical; conditions: 4 h incubation at room temperature
Sequence (P10828 217-461 limits assumed, other chains not shown): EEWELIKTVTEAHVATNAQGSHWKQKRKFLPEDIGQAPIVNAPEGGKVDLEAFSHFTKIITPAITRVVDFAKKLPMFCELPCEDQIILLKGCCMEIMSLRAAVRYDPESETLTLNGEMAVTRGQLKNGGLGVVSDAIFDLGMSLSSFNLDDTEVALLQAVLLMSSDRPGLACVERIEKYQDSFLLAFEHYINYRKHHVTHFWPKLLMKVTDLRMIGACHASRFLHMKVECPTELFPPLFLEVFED
Sequence (P19793 whole entry partner, other chains not shown, the tested form may be a part): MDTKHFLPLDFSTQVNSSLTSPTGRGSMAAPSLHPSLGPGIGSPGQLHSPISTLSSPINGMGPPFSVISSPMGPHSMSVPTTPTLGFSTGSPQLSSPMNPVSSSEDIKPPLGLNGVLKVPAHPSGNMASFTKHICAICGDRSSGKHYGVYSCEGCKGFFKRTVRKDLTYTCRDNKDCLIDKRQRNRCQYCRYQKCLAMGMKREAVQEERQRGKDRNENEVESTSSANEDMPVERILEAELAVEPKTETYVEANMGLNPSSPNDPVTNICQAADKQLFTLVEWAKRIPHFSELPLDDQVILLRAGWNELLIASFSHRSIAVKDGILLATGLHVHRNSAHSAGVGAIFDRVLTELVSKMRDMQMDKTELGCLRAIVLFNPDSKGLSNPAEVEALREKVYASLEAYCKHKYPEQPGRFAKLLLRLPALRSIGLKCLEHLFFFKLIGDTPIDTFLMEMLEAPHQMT
MEASURED ATTRIBUTE: EC50 (µM)

N#Cc1nn(-c2cc(Cl)c(Oc3ncc(O)c(Cc4ccc(F)cc4)n3)c(Cl)c2)c(=O)[nH]c1=O; 0.007
CC(C)c1nc(Oc2c(Cl)cc(-c3noc(=O)[nH]3)cc2Cl)ncc1O; 0.746
CC(C)c1nc(Oc2c(Cl)cc(NC(=O)C(=O)O)cc2Cl)ncc1O; 0.001

[1] N#Cc1nn(-c2cc(Cl)c(Oc3ncc(O)c(Cc4ccccc4)n3)c(Cl)c2)c(=O)[nH]c1=O
[2] CC(C)c1nc(Oc2c(Cl)cc(NCP(=O)(O)O)cc2Cl)ncc1O
Q: Task for the reader: decide whether 1 or 2 has the larger EC50. Give the chosen item's label as your response.
Ans: 2

[P] CCC(CC)c1nc(Oc2c(Cl)cc(-n3ncc(=O)[nH]c3=O)cc2Cl)ncc1O
[Q] CC(C)c1nc(Oc2c(Cl)cc(-n3ncc(=O)[nH]c3=O)c3c2CCC3)ncc1O
Q: Could you check which of P and Q has a smaller value for EC50? Give the chosen item's label as your response.
Ans: P

====

experiment: PK experiment of cynomolgus monkeys; format: in vivo; conditions: male, cynomolgus monkey; PO, 5 mg/kg, single dose, plasma; read-out: Area under the curve AUC(0-t) in the case of administration
MEASURED ATTRIBUTE: AUC(0-t) (ng·h/mL)

[a] CC(C)c1cc(Oc2c(Cl)cc(-n3nc(C#N)c(=O)[nH]c3=O)cc2Cl)n[nH]c1=O [MGL3196, reference compound]
[b] CC(C)c1nc(Oc2c(Cl)cc(-n3ncc(=O)[nH]c3=O)cc2Cl)ncc1O
Q: Could you check which of a and b has a smaller value for AUC(0-t)? Give the chosen item's label as your response.
Ans: a

====

target: TRα (Homo sapiens, UniProt P10827); construct: host or cells: HEK293T; experiment: In vitro TRα cell transfection experiment (GAL4 luciferase reporter, HEK293T); format: cell-based
Sequence (P10827 1-410 isoform P10827-2): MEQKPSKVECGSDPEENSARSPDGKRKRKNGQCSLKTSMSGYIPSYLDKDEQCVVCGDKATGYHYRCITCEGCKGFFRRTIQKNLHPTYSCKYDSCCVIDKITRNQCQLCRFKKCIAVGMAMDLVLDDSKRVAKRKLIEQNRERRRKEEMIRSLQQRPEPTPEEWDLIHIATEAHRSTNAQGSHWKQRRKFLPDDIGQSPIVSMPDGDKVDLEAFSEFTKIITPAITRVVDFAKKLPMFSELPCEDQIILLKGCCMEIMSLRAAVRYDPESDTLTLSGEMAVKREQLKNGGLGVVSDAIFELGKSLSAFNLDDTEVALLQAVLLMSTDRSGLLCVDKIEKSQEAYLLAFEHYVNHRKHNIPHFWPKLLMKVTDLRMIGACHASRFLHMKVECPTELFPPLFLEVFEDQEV
Sequence (P19793 227-458 partner limits assumed): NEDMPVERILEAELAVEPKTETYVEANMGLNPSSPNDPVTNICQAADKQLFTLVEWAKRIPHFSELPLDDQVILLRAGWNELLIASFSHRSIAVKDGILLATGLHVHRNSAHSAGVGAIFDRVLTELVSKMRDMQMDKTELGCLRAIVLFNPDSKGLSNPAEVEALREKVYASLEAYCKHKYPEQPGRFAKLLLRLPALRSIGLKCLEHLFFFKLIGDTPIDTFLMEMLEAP
MEASURED ATTRIBUTE: EC50 (µM)

Completed entries (count: 3):
CCC(CC)c1nc(Oc2c(Cl)cc(-n3nc(C#N)c(=O)[nH]c3=O)cc2Cl)ncc1O; 0.507
CC(C)c1nc(Oc2c(Cl)cc(-n3ncc(=O)[nH]c3=O)cc2Cl)ncc1O; 0.037
CC(C)c1nc(Oc2c(Cl)cc(-n3nc(C#N)c(=O)[nH]c3=O)cc2Cl)ncc1O; 0.826

[1] CC(C)c1nc(Sc2c(Cl)cc(-n3ncc(=O)[nH]c3=O)cc2Cl)ncc1O
[2] CC(C)c1nc(Oc2c(Cl)cc(NCC(=O)O)cc2Cl)ncc1O
[3] CC(C)c1nc(Oc2c(Cl)cc(NC(=O)C(=O)O)cc2Cl)ncc1O
[4] CC(C)c1nc(Oc2c(Cl)cc(-n3ncc(=O)[nH]c3=O)c3c2CCC3)ncc1O
Q: In this exercise, place the 4 compounds in ascending sequence of their recorded EC50. Answer by writing out the labels in the requested order.
Ans: 1, 4, 3, 2
